Origin of the recorded values: PubChem BioAssay (NCATS)

Assay: qHTS for Inhibitors of ATXN expression: Validation of Cytotoxic Assay (AID 588349);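 note: cells exposed to compound for 72 hr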; note: potency is the fitted concentration of half-maximal effect
Settings: cytotoxicity counter-screen for ATXN expression inhibitors, cell viability; series mostly up to 57.1 µM
Results filed as inconclusive are left out. The source made the active and inactive calls. Calls come from the whole dose curve; as a rule, active = well fitted cell-killing curve with a large enough effect; inconclusive = small, poorly fitted or top-dose-only effect, or effect the other way; inactive = flat fitted curve, though single readings scatter.
Measurement name: Potency

molecule=CCOC(=O)c1cnc2c(cnn2CC)c1NN=C(C)C recorded_value=inactive
molecule=NC(N)=NC(=O)Cc1c(Cl)cccc1Cl recorded_value=inactive
molecule="CC(N=C(NC#N)Nc1ccncc1)C(C)(C)C (configuration not stated)" recorded_value=inactive
molecule=OCCN1CCN(CC/C=C2/c3ccccc3Sc3ccc(C(F)(F)F)cc32)CC1 recorded_value="28.2 µM (active)"
molecule="NC(Cc1ccc(Cl)cc1)C(=O)O (configuration not stated)" recorded_value=inactive
molecule=C[C@@H](O)[C@H]1C(=O)N2C(C(=O)O)=C(SCCN=CN)C[C@H]12 recorded_value=inactive
molecule="CC(C)(C)NCC(O)c1cc(O)cc(O)c1 (configuration not stated)" recorded_value=inactive
molecule=Cc1nc2ccccn2c(=O)c1CCN1CCC(C(=O)c2ccc(F)cc2)CC1 recorded_value=inactive
molecule=c1cnc(N2CCN(Cc3ccc4c(c3)OCO4)CC2)nc1 recorded_value=inactive
molecule=C[n+]1cc2c3c(ccc2c2ccc4cc5c(cc4c21)OCO5)OCO3 recorded_value="3.55 µM (active)"
molecule=C[N+](C)(C)CCCCCCCCCC[N+](C)(C)C recorded_value=inactive
molecule=O=C(CCCN1CCC(O)(c2cccc(C(F)(F)F)c2)CC1)c1ccc(F)cc1 recorded_value=inactive

###

Test system: KB-3-1
Assay: Cytotoxic Profiling of Annotated Libraries Using Quantitative High-Throughput Screening (AID 1296008); note: % is set by controls: 0 for no effect and ±100 for the full control effect; nearly all actives have a fitted effect of over 60% in size
Conditions: Five cell lines viability, CellTiter-Glo ATP luminescence, 48-72 h; hits give low values
Records with an inconclusive call do not appear.
Measurement name: max response (%)

compound=C[N+](C)(C)CCOC(N)=O experimental_target=KB-3-1 result_units=% recorded_value=27.4
compound=C[C@@H](O)[C@H]1C(=O)N2C(C(=O)O)=C(SCCN=CN)C[C@H]12 experimental_target=KB-3-1 result_units=% recorded_value=-8.98
compound=N[C@@H](COP(=O)(O)O)C(=O)O experimental_target=KB-3-1 result_units=% recorded_value=-0.563
compound="OC(CCN1CCCCC1)(c1ccccc1)C1CCCCC1 (configuration not stated)" experimental_target=KB-3-1 result_units=% recorded_value=-15.6
compound=CCc1cccc(N(C)C(N)=Nc2cccc3ccccc23)c1 experimental_target=KB-3-1 result_units=% recorded_value=-7.55
compound=CCCCNc1c(C(=O)OCC)c(C)nc2c1cnn2CC experimental_target=KB-3-1 result_units=% recorded_value=1.34
compound=Cc1scc2c1N(C(=O)CN1CCN(C)CC1)c1ccccc1NC2=O experimental_target=KB-3-1 result_units=% recorded_value=6.97
compound=NC(=O)N1c2ccccc2C=Cc2ccccc21 experimental_target=KB-3-1 result_units=% recorded_value=-5.38
compound="CCn1ccnc1CC1COc2ccccc2O1 (configuration not stated)" experimental_target=KB-3-1 result_units=% recorded_value=19.9
compound=CCN(CC)CCNC(=O)c1cc(S(C)(=O)=O)ccc1OC experimental_target=KB-3-1 result_units=% recorded_value=6.27
compound="COc1ccc(CCN(C)CCCC(C#N)(c2cc(OC)c(OC)c(OC)c2)C(C)C)cc1OC (configuration not stated)" experimental_target=KB-3-1 result_units=% recorded_value=-0.362
compound="CCCNC(C)C(=O)Nc1ccccc1C (configuration not stated)" experimental_target=KB-3-1 result_units=% recorded_value=7.86

###

System: ATS189
Experiment: qHTS profiling for inhibitors of Plasmodium falciparum proliferation (AID 504749); note: nearly all actives have a fitted effect of over 60% in size
Conditions: P. falciparum in erythrocytes, SYBR Green DNA, 72 h; series mostly up to 28.7 µM
Results filed as inconclusive are left out. Active and inactive are the calls of the source. Calls come from the whole dose curve; as a rule, active = well fitted inhibition curve with a large enough effect; inconclusive = small, poorly fitted or top-dose-only effect; inactive = flat fitted curve, though single readings scatter.
Classes used: y = active, n = inactive

compound=OCCN1CCN(CC/C=C2/c3ccccc3Sc3ccc(C(F)(F)F)cc32)CC1 experimental_target=ATS189 assigned_category=y
compound=Cc1nnc(SCC2=C(C(=O)O)N3C(=O)[C@@H](NC(=O)Cn4cnnn4)[C@H]3SC2)s1 experimental_target=ATS189 assigned_category=n
compound=CC(C)NNC(=O)c1ccncc1 experimental_target=ATS189 assigned_category=n
compound="OC(CCN1CCCCC1)(c1ccccc1)C1CCCCC1 (stereo unspecified)" experimental_target=ATS189 assigned_category=n
compound=CN(C)C/C=C(/c1ccc(Br)cc1)c1cccnc1 experimental_target=ATS189 assigned_category=n
compound=CCN1CCC[C@H]1CNC(=O)c1c(O)c(Cl)cc(Cl)c1OC experimental_target=ATS189 assigned_category=n

###

Tested on: ATS95
Experiment: qHTS profiling for inhibitors of Plasmodium falciparum proliferation (AID 504749); note: nearly all actives have a fitted effect of over 60% in size
Settings: P. falciparum in erythrocytes, SYBR Green DNA, 72 h; series mostly up to 28.7 µM
Results filed as inconclusive are left out. Active and inactive are the calls of the source. Calls come from the whole dose curve; as a rule, active = well fitted inhibition curve with a large enough effect; inconclusive = small, poorly fitted or top-dose-only effect; inactive = flat fitted curve, though single readings scatter.
Possible outcomes: TRUE = active, FALSE = inactive

molecule=C[N+](C)(C)CCCCCCCCCC[N+](C)(C)C experimental_target=ATS95 assigned_category=TRUE
molecule="CC(N=C(NC#N)Nc1ccncc1)C(C)(C)C (stereo unspecified)" experimental_target=ATS95 assigned_category=FALSE
molecule="CCOC(=O)C1=C(C)NC(C)=C(C(=O)OC)C1c1cccc(Cl)c1Cl (stereo unspecified)" experimental_target=ATS95 assigned_category=FALSE
molecule=Cc1ccc(S(=O)(=O)NC(=O)NN2CCCCCC2)cc1 experimental_target=ATS95 assigned_category=FALSE
molecule=CC(C)(C)c1ccc(C(=O)CCCN2CCC(OC(c3ccccc3)c3ccccc3)CC2)cc1 experimental_target=ATS95 assigned_category=TRUE
molecule="NC1=NCC2c3ccccc3Cc3ccccc3N12 (stereo unspecified)" experimental_target=ATS95 assigned_category=FALSE

###

Target: D(1A) dopamine receptor (Homo sapiens) (UniProt P21728)
Sequence (P21728 whole entry, looked up): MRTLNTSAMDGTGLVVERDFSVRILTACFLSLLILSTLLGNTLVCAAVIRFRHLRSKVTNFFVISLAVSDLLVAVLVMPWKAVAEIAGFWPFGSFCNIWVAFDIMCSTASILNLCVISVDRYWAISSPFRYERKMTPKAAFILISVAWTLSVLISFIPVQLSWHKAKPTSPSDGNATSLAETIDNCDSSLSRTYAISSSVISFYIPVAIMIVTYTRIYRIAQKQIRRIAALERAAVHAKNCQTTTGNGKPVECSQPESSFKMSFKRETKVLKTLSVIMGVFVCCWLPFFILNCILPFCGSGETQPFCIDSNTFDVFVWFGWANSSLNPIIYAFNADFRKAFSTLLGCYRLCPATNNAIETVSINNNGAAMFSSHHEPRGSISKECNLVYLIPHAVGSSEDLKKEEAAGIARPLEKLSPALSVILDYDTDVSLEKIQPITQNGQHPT
Assay: HTS Assay for Allosteric Agonists of the Human D1 Dopamine Receptor: Primary Screen for Antagonists (AID 488983);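 note: calcium flux response to an EC80 dopamine challenge measured with no-wash dye; nearly all actives have a fitted effect of over 65% in size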
Conditions: D1 receptor cell assay, antagonist mode, qHTS titration; series mostly up to 41.8 µM
Records with an inconclusive call do not appear. Active and inactive are the calls of the source. Calls come from the whole dose curve; as a rule, active = well fitted inhibition curve with a large enough effect; inconclusive = small, poorly fitted or top-dose-only effect, or effect the other way; inactive = flat fitted curve, though single readings scatter.
Labels: active, inactive

compound=CCCCNC(=O)NS(=O)(=O)c1ccc(C)cc1 assigned_category=inactive
compound=CC(=O)Oc1cc(C(C)C)c(OCCN(C)C)cc1C assigned_category=inactive
compound=NC(=O)c1ncn([C@@H]2O[C@H](CO)[C@@H](O)[C@H]2O)c1O assigned_category=inactive
compound=Nc1ncn([C@@H]2O[C@H](CO)[C@@H](O)[C@H]2O)c(=O)n1 assigned_category=inactive
compound=Fc1ccc(C(c2ccc(F)cc2)N2CCN(C/C=C/c3ccccc3)CC2)cc1 assigned_category=inactive
compound=Cc1nc2ccccn2c(=O)c1CCN1CCC(C(=O)c2ccc(F)cc2)CC1 assigned_category=active
compound="Cc1cccc(C)c1NC(=O)C(C)N (configuration not stated)" assigned_category=inactive
compound="CC(C(=O)O)c1ccc(CC2CCCC2=O)cc1 (configuration not stated)" assigned_category=inactive
compound=Cc1ccc(Cl)c(Nc2ccccc2C(=O)O)c1Cl assigned_category=inactive
compound="CCc1c(C)[nH]c2c1C(=O)C(CN1CCOCC1)CC2 (configuration not stated)" assigned_category=active
compound="Nc1c2c(nc3ccccc13)CCCC2O (configuration not stated)" assigned_category=inactive
compound="CC(C)(C)NCC(O)c1cc(O)cc(O)c1 (configuration not stated)" assigned_category=inactive

###

Assay: Primary qHTS for inhibitors of nuclear receptor binding SET domain protein 2 (NSD2) in an isogenic RCH-ACV NSD2 p.E1099K mutant (9B) (AID 1645876); note: nearly all actives have a fitted effect of over 70% in size
Settings: RCH-ACV (leukaemia line) NSD2 E1099K (9B) viability, CellTiter-Glo, 72 h; series mostly up to 44.9 µM
Records with an inconclusive call do not appear. Activity calls are given as the source filed them. Calls come from the whole dose curve; as a rule, active = well fitted inhibition curve with a large enough effect; inconclusive = small, poorly fitted or top-dose-only effect; inactive = flat fitted curve, though single readings scatter.
Outcomes: 1 (yes) for active, 0 (no) for inactive

molecule=CC(=O)Oc1cc(C(C)C)c(OCCN(C)C)cc1C assigned_category="0 (no)"
molecule=CCN1CCC[C@H]1CNC(=O)c1c(O)c(Cl)cc(Cl)c1OC assigned_category="0 (no)"
molecule=C(=C\c1ccccc1)/CN1CCN(C(c2ccccc2)c2ccccc2)CC1 assigned_category="0 (no)"
molecule=Cc1ccc(S(=O)(=O)NC(=O)NN2CCCCCC2)cc1 assigned_category="0 (no)"
molecule="COCCOC(=O)C1=C(C)NC(C)=C(C(=O)OC(C)C)C1c1cccc([N+](=O)[O-])c1 (stereo not given)" assigned_category="0 (no)"
molecule=CC(C)[N+](C)(CCOC(=O)C1c2ccccc2Oc2ccccc21)C(C)C assigned_category="0 (no)"
molecule=CN(C)CCN(Cc1cccs1)c1ccccn1 assigned_category="0 (no)"
molecule=CC(C)(C)c1ccc(C(=O)CCCN2CCC(OC(c3ccccc3)c3ccccc3)CC2)cc1 assigned_category="1 (yes)"
molecule=CC(C)(Oc1ccc(CCNC(=O)c2ccc(Cl)cc2)cc1)C(=O)O assigned_category="0 (no)"
molecule=CCN(CC)CC(=O)Nc1c(C)cccc1C assigned_category="0 (no)"
molecule=CCCCNc1ccc(C(=O)OCCN(C)C)cc1 assigned_category="0 (no)"
molecule="CCn1ccnc1CC1COc2ccccc2O1 (stereo not given)" assigned_category="0 (no)"
molecule=N[C@@H](COP(=O)(O)O)C(=O)O assigned_category="0 (no)"
molecule=CCn1nc(C(=O)O)c(=O)c2cc3c(cc21)OCO3 assigned_category="0 (no)"
molecule=CCn1cc(C(=O)O)c(=O)c2cc3c(cc21)OCO3 assigned_category="0 (no)"
molecule="CC(=O)OC(C)C[N+](C)(C)C (stereo not given)" assigned_category="0 (no)"
molecule=CCCCNC(=O)NS(=O)(=O)c1ccc(C)cc1 assigned_category="0 (no)"
molecule=CCN(CC)CCOCCOC(=O)C1(c2ccccc2)CCCC1 assigned_category="0 (no)"
molecule=C[C@@H](O)[C@H]1C(=O)N2C(C(=O)O)=C(SCCN=CN)C[C@H]12 assigned_category="0 (no)"
molecule=CSc1ccc(C(=O)c2[nH]c(=O)[nH]c2C)cc1 assigned_category="0 (no)"
molecule=CN(C)C(=O)Oc1cccc([N+](C)(C)C)c1 assigned_category="0 (no)"
molecule=CN/C(=C\[N+](=O)[O-])NCCSCc1ccc(CN(C)C)o1 assigned_category="0 (no)"
molecule=NC(=O)c1cn(Cc2c(F)cccc2F)nn1 assigned_category="0 (no)"
molecule=Brc1c(NC2=NCCN2)ccc2nccnc12 assigned_category="0 (no)"
molecule=C[C@H](CS)C(=O)N1CCC[C@H]1C(=O)O assigned_category="0 (no)"
